# assayed-system: T1, LILRB2 (UniProt Q8N423 22-460, limits assumed)
# T1 construct: Panning used recombinantly expressed LILRB2-His; also called Leukocyte Immunoglobulin-like Receptor subfamily B member 2; LILRB2-His
# T1 sequence (Q8N423 22-460 limits assumed): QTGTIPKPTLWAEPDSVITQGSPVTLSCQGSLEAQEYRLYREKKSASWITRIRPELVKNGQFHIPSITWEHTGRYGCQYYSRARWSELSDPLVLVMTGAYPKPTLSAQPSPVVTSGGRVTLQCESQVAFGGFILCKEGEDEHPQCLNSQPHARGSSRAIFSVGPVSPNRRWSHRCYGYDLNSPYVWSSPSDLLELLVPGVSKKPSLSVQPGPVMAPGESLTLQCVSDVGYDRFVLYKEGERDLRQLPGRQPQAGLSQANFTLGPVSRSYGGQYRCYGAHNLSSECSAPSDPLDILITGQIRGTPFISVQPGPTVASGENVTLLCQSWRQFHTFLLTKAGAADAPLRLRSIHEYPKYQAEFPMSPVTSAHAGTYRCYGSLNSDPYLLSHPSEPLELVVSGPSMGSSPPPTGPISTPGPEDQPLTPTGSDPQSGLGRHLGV
# protocol-summary: BLI, Octet Red96
pKd values by entry
Quick note: pKd values are minus log10 of concentrations in mol/L.

>  <binder>
NeuB2-93 (antibody, V domains shown, also called Ab93; 93-HC/93-LC) VH: QVQLMQSGAEVKKPGSSVKVSCKASGGRFSSNVMSWVRQAPGQGLEWMGGIIPIFGTPKYAQKFQGRVTITADKSTSTAYMELSSLRSEDTAVYYCASGSTPFDAFDIWGQGTMVTVSS VL: QPVLTQPASVSGSPGQSITISCTGTSSDVGGYNYVSWYQQHPGKAPKLMIYEVSNRPSGVSNRFSGSKSGNTASLTISGLQAEDEADYYCSSYTSSSTPWVFGGGTKVTVL

>  <pKd>
7.08

$$$$

Next, consider the following binder.
I am curious: what pKd value has been reported for NeuB2-29 (antibody, V domains shown, also called Ab29; NewuB2-29) VH: QVQLVETGGGVVQPGRSLRLSCAASGFTFSDYAMHWVRQAPGKGLEWVTLISYDGSQKYYADSVKGRFTISRDDSKNTVDLQMNSLKAEDTAVYYCAKFPSLNDNVGFDVWGQGTMVTVSS VL: QSVLTQPPSVSGAPRERVTISCSGSTSNIENNAVNWYQQLPGKAPKLLIYYDDLVPSGVSDRFSGSKSGTSASLAISGLQSGDEAYYYCAVWDDSLNGPVFGGGTKVTVL ?
8.05
